Give measured MIC for each item. Keep answers brief.
- System: Escherichia coli
- METHOD: Antibacterial activity against Escherichia coli […] assessed as growth inhibition after 16 to 18 hr by serial plate dilution method
- Type: functional
Supply the numeric figure in µg/mL, leaving out any unit text.

(Q) MIC lookup needed for "Cc1[nH]c2ccc(OC(F)(F)F)cc2c1CNC(=O)CCc1c[nH]c2ccc(Cl)cc12" , thanks.
(A) 12.5

(Q) MIC lookup needed for "Cn1cc(CCC(=O)NCCCc2c[nH]c3ccc(Cl)cc23)c2cc(Cl)ccc21" , thanks.
(A) 6.25

(Q) MIC lookup needed for "Cn1cc(CCC(=O)NCCCc2c[nH]c3ccc(OC(F)(F)F)cc23)c2cc(Cl)ccc21" , thanks.
(A) 12.5

(Q) MIC lookup needed for "Cn1cc(CCCNC(=O)CCc2cn(C)c3ccc(Cl)cc23)c2cc(Cl)ccc21" , thanks.
(A) 25

(Q) MIC lookup needed for "Cc1[nH]c2ccc(OC(F)(F)F)cc2c1CNC(=O)CCc1cn(C)c2ccc(Cl)cc12" , thanks.
(A) 6.25

(Q) MIC lookup needed for "O=C(CCc1c[nH]c2ccc(Cl)cc12)NCCCc1c[nH]c2ccc(OC(F)(F)F)cc12" , thanks.
(A) 6.25

Value source: ChEMBL document CHEMBL3044921
